Molecular target: T1, huCD4-HIS (human, UniProt P01730 26-390, limits assumed)
T1 construct: Named only in the head of the ELISA binning column; not shown: HIS tag
Experiment: ELISA binning; competitor Ibalizumab, 100 ng/mL huCD4-HIS, anti-HIS HRP detection (background 45, max binding 3000000)
experimentalReadout: Ibalizumab ELISA binning signal
Note: the reply should be a number with no unit written.

75110_08A13A (antibody, V domains shown, Tested as non-clonal hybridoma supernatant (AlivaMab Mouse Kappa), detected with anti-mouse Fc and anti-human kappa) VH: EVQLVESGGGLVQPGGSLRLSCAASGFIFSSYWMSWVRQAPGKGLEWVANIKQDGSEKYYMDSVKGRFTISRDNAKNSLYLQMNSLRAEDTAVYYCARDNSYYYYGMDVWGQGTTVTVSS VL: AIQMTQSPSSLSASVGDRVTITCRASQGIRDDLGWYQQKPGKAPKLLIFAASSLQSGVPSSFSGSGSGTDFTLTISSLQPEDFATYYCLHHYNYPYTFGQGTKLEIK | 230000

Please turn your attention to the following entry.
Return reported Ibalizumab ELISA binning signal; argument: 75110_07J24A (antibody, V domains shown, Tested as non-clonal hybridoma supernatant (AlivaMab Mouse Kappa), detected with anti-mouse Fc and anti-human kappa) VH: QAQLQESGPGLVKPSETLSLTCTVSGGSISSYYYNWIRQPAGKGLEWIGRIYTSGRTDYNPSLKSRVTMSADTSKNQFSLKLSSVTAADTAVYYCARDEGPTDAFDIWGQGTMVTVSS VL: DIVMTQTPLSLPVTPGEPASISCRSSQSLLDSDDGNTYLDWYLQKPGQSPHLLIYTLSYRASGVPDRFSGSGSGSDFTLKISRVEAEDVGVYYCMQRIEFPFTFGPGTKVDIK
215000
